Recorded values, source patent US20250353853A1.

Test system: ZIKV replicon in Vero cells
TEST_PROTOCOL: ZIKV Replication Inhibition Assay (replicon, NanoLuc)
TEST_CONDITIONS: Zika virus, Vero, 72 h, read-out: Zika Replicon EC50
pEC50: −log10 of the molar value.
Each item that follows carries a reported pEC50.

{"MOLECULE": "COc1ncc(-c2ccc(C[n+]3cc([N-]C(=O)Nc4cccc(Cl)c4)on3)cc2)c(C)n1 [Example 113]", "STUDY_TARGET": "ZIKV replicon in Vero cells", "pEC50": "6.00 to 7.00"}
{"MOLECULE": "Cc1noc(C)c1-c1ccc(C[n+]2cc([N-]C(=O)Nc3cncc(C(F)(F)F)c3)on2)nc1 [Example 126]", "STUDY_TARGET": "ZIKV replicon in Vero cells", "pEC50": "> 7.00"}
{"MOLECULE": "O=C([N-]c1c[n+](Cc2cccc(Br)c2)no1)Nc1cccc(C(F)(F)F)c1 [Example 46]", "STUDY_TARGET": "ZIKV replicon in Vero cells", "pEC50": "4.70 to 6.00"}
{"MOLECULE": "O=C([N-]c1c[n+](Cc2ccc(-c3cnoc3)cc2)no1)Nc1cccc(C(F)(F)F)c1 [Example 48]", "STUDY_TARGET": "ZIKV replicon in Vero cells", "pEC50": "6.00 to 7.00"}
{"MOLECULE": "Cc1cnn(C)c1-c1ccc(C[n+]2cc([N-]C(=O)Nc3cccc(C(F)(F)F)c3)on2)nc1 [Example 165]", "STUDY_TARGET": "ZIKV replicon in Vero cells", "pEC50": "> 7.00"}
{"MOLECULE": "O=C([N-]c1c[n+](Cc2ccc(-c3ccnc(O)c3)cc2)no1)Nc1cccc(C(F)(F)F)c1 [Example 64]", "STUDY_TARGET": "ZIKV replicon in Vero cells", "pEC50": "6.00 to 7.00"}
{"MOLECULE": "Cc1nc(OCCO)ncc1-c1ccc(C[n+]2cc([N-]C(=O)Nc3cccc(C(F)(F)F)c3)on2)cc1 [Example 89]", "STUDY_TARGET": "ZIKV replicon in Vero cells", "pEC50": "6.00 to 7.00"}
{"MOLECULE": "Cc1noc(C)c1-c1ccc(C[n+]2cc([N-]C(=O)Nc3ccnc(C(F)(F)F)c3)on2)cc1 [Example 186]", "STUDY_TARGET": "ZIKV replicon in Vero cells", "pEC50": "> 7.00"}
